# test system: Substance-K receptor (Homo sapiens, UniProt P21452); also: in other assays of this panel Not Active means under 50% inhibition at 10 µM
# Sequence (P21452 whole entry): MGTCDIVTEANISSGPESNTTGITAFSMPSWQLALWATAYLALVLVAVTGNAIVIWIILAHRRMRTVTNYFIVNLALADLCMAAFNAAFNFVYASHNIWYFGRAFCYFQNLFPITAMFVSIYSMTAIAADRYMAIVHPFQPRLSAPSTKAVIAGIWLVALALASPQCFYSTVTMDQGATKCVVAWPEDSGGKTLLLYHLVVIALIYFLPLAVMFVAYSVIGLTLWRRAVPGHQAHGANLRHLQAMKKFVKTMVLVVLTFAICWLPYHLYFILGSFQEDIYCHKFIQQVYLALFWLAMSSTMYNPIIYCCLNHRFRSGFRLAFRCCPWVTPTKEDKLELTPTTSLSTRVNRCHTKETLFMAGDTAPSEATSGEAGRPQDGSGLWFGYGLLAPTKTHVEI
# Assay type: cell membranes, CHO, Membrane
# condition details: read-out: IC50
pIC50: −log10 of the molar value.
quantity kind: pIC50

[[record]]
compound = "CCCCCCCCNC(C)C(O)c1ccc(SC(C)C)cc1 (stereo not drawn)"
test_system = "Substance-K receptor (Homo sapiens, UniProt P21452)"
result_value = 5.17

[[record]]
compound = "Cc1c(O)cccc1C(=O)N[C@@H](CSc1ccccc1)[C@H](O)CN1C[C@H]2CCCC[C@H]2C[C@H]1C(=O)NC(C)(C)C"
test_system = "Substance-K receptor (Homo sapiens, UniProt P21452)"
result_value = 4.53

[[record]]
compound = "Clc1ccc(COC(Cn2ccnc2)c2ccc(Cl)cc2Cl)c(Cl)c1 (stereo not drawn)"
test_system = "Substance-K receptor (Homo sapiens, UniProt P21452)"
result_value = 5.32


----------
# assay method text: DRUGMATRIX: Calcium Channel Type L, Benzothiazepine radioligand binding (ligand: [3H] Diltiazem)
# Assay type: cell membranes, Rattus norvegicus, Wistar, Brain, Membrane
# condition details: Not Active = under 50% inhibition at 10 µM; read-out: IC50
quantity kind: log10 IC50 (log10 of the value in µM)

[[record]]
compound = "CN1CCN(C(c2ccccc2)c2ccccc2)CC1"
result_value = 0.40

[[record]]
compound = "N=C(N)c1ccc(OCCCCCOc2ccc(C(=N)N)cc2)cc1"
result_value = 0.34

[[record]]
compound = "COC(=O)[C@H]1[C@H]2C[C@@H]3c4[nH]c5cc(OC)ccc5c4CCN3C[C@H]2C[C@@H](OC(=O)c2cc(OC)c(OC)c(OC)c2)[C@@H]1OC"
result_value = 0.57

[[record]]
compound = "CCN(CC)CCCC(C)Nc1c2ccc(Cl)cc2nc2ccc(OC)cc12 (stereo not drawn)"
result_value = 0.03

[[record]]
compound = "Cc1c(O)cccc1C(=O)N[C@@H](CSc1ccccc1)[C@H](O)CN1C[C@H]2CCCC[C@H]2C[C@H]1C(=O)NC(C)(C)C"
result_value = 1.16

[[record]]
compound = "CN1CCC(=C2c3ccccc3CC(=O)c3sccc32)CC1"
result_value = 0.36

[[record]]
compound = "CCCCCCCCNC(C)C(O)c1ccc(SC(C)C)cc1 (stereo not drawn)"
result_value = -0.77

[[record]]
compound = "CN(C)CCC=C1c2ccccc2CCc2ccccc21"
result_value = 0.30


----------
# assay method text: DRUGMATRIX: Glutamate, Kainate radioligand binding (ligand: [3H] Kainic acid)
# Assay type: cell membranes, Rattus norvegicus, Wistar, Brain, Membrane
# condition details: Not Active = under 50% inhibition at 10 µM
quantity kind: IC50

[[record]]
compound = "C[C@]12C=CC(=O)C=C1CC[C@H]1[C@@H]3C[C@@H](O)[C@](O)(C(=O)CO)[C@@]3(C)C[C@H](O)[C@@]12F"
result_value = "Not Active"

[[record]]
compound = "CC[C@]1(O)C[C@@H]2CN(CCc3c([nH]c4ccccc34)[C@@](C(=O)OC)(c3cc4c(cc3OC)N(C)[C@H]3[C@@](O)(C(N)=O)[C@H](O)[C@]5(CC)C=CCN6CC[C@]43[C@@H]65)C2)C1"
result_value = "Not Active"

[[record]]
compound = "CN1CCN(C(c2ccccc2)c2ccccc2)CC1"
result_value = "Not Active"

[[record]]
compound = "O=C(O)CCNC(=O)c1ccc(/N=N/c2ccc(O)c(C(=O)O)c2)cc1 [BALSALAZIDE]"
result_value = "Not Active"

[[record]]
compound = "CN1C(=O)CN=C(c2ccccc2)c2cc([N+](=O)[O-])ccc21"
result_value = "Not Active"

[[record]]
compound = "Cc1c(O)cccc1C(=O)N[C@@H](CSc1ccccc1)[C@H](O)CN1C[C@H]2CCCC[C@H]2C[C@H]1C(=O)NC(C)(C)C"
result_value = "Not Active"

[[record]]
compound = "O=C(c1ccccc1F)N1CCC(Cc2ccccc2)CC1"
result_value = "Not Active"

